- Tested on: Larvae of Mosquito (Culex pipiens)
- test method notes: Insecticidal activity on larvae of mosquito (Experimental Example 2)
- Type: in vivo
- experimental parameters: 24 h, read-out: LC50 (50% lethal concentration)
The following molecules are listed with their measured LC50 values.
measured metric: LC50 (ng/mL)

> print(dat)
                                   molecule  unit.of.measure  value.observed
1  C=C(C)C(C(=O)OCc1cccc(Oc2ccccc2)c1)c1ccc(C)cc1 (centres unmarked)            ng/mL             3.2
2  CC(C)C(C(=O)OC(C#N)c1cccc(Oc2ccccc2)c1)c1ccc(Cl)cc1 (centres unmarked)            ng/mL             1.4
3  Cc1ccc(C(C(=O)OCc2ccc(Cc3ccccc3)cc2)C(C)C)cc1 (centres unmarked)            ng/mL            13.5
4  CC(C)C(C(=O)OCc1coc(Cc2ccccc2)c1)c1cccc(Cl)c1 (centres unmarked)            ng/mL             7.5
5  C=C(C)C(C(=O)OCc1csc(Cc2ccccc2)c1)c1ccc(C)cc1 (centres unmarked)            ng/mL             4.6
